subjectOfTest: T1, recombinant canine OX40L ECD-TNCc-HIS protein (canine)
T1 construct: also called Trimeric OX40L probe (HIS tag); trimeric canine OX40L
T1 chain: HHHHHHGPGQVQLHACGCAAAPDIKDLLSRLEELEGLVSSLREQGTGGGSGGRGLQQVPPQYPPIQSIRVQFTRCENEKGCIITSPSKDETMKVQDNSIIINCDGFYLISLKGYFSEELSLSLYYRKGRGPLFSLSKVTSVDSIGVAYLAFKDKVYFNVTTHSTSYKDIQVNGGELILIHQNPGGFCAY
methodSummary: SPR Koff (kd2)
property: koff (s⁻¹)
Answer format: numeric, s⁻¹ implied, no suffix.

PMX037 (antibody, V domains shown, also called PMX37) VH: EVQLLESGGDLVKPGGSLRLSCVASGFTFSNYEMYWVRQAPGKGLEWVARFYESGSTTYSAEAVPGRFTISRDNAKNMAYLQMNSLRAEDTAVYYCASASSSSWRFDYWGQGTLVTVSS VL: SYVLTQLPSVSVTLGQTARITCGGDSIGSKNVYWFQQKLGQAPVLIIYDDRSRPSGIPERFSGANSGNTATLTISGALAEDEADYYCQVWDSSTGVFGGGTHLTVL: 0.000862

Just so you know, measured koff for PMX293 (antibody, V domains shown) VH: EVRLLESGGDLVKPAGSLRLSCAVSGFTFSTYDMSWVRQAPGKGLQWVAYITYDGRTTSYTDTVKGRFTVSRDNAKNMLYLKMNSLRSEDAAVYYCAKAHRGWFFDHWGQGTLVTVSS VL: SYVLTQLPSVSVTLRQTARITCGGDSIGSKNVYWYQQKLGQAPVLIIYDDTSRPSGIPERFSGANSGTTATLTISGALAEDEADYYCQVWDSSTGVFGGGTHLTVL came out at 145

Just so you know, measured koff for PMX053 (antibody, V domains shown, also called PMX53) VH: EVQLVESGGDLVKPAGSLRLSCVASGFTFSSYSMSWVRQAPEKGLQLVAGINSAGSSTYYTDAVKGRFTISRDNAKNTVYLQMNSLRAEDTAIYYCAKRWVFDYWGQGTLVTVSS VL: DIVMTQTPLSLSVSPGEPASISCKASQSLPHSLGNTYLYWFRQKPGQSPQRLIYKVSNRDPGVPDRFSGSGSGTDFTLRISRVEADDAGIYYCGQGIQDPFTFGQGTKLEIK came out at 0.565
